Target: PPARG/RXRA LBD heterodimer (Homo sapiens, UniProt P37231)
Construct: His-TEV-Q203-Y477; Uniprot ID P37231-2; made in house; host or cells: E. coli
Sequence (P37231 203-477 isoform P37231-2): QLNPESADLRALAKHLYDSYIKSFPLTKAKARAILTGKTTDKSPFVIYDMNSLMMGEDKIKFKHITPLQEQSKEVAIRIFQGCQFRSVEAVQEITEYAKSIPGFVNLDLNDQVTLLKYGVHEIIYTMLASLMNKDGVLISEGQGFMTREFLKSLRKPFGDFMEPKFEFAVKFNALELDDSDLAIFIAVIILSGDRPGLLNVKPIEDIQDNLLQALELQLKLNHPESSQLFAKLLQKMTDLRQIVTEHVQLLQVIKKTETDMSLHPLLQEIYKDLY
Sequence (P19793 228-462 partner limits assumed): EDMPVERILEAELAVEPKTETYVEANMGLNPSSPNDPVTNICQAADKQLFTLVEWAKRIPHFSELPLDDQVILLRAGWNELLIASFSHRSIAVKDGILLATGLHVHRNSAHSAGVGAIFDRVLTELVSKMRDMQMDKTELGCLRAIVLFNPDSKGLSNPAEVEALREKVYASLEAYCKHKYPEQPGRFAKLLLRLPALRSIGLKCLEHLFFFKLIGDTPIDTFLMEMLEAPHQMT
Assay: PPARγ-MED1 blockade assay (TR-FRET, biotinylated MED1 LxxLL peptide)
Assay type: biochemical
Conditions: WT PPARG LBD/WT RXRA LBD, 80 nM Rosiglitazone, 3 hours
Here the recorded EC50 is given for each entry.

// worked examples, EC50 included
* CNC(=O)CCc1c(F)cc2[nH]c(-c3cc(C#N)ccc3Cl)cc(=O)c2c1F | > 10000 nM
* CC(=O)N1CCN(c2c(F)cc3[nH]c(-c4cc(C#N)ccc4Cl)cc(=O)c3c2F)CC1 | 1000 to 10000 nM
* COC1CN(c2c(F)cc3[nH]c(-c4cc(C#N)ccc4Cl)cc(=O)c3c2F)C1 | 1000 to 10000 nM

Kindly note: PPARG/RXRA LBD heterodimer (Homo sapiens, UniProt P37231), `Cc1cc(-c2c(F)cc3[nH]c(-c4cc(C#N)ccc4Cl)cc(=O)c3c2F)ccn1` , EC50 value reported: 100 to 1000 nM

Kindly note: PPARG/RXRA LBD heterodimer (Homo sapiens, UniProt P37231), `CN(C)C1CN(c2c(F)cc3[nH]c(-c4cc(C#N)ccc4Cl)cc(=O)c3c2F)C1` , EC50 value reported: 1000 to 10000 nM

Kindly note: PPARG/RXRA LBD heterodimer (Homo sapiens, UniProt P37231), `CN(C)CCn1cc(-c2c(F)cc3[nH]c(-c4cc(C#N)ccc4Cl)cc(=O)c3c2F)cn1` , EC50 value reported: 1000 to 10000 nM

Kindly note: PPARG/RXRA LBD heterodimer (Homo sapiens, UniProt P37231), `N#Cc1ccc(Cl)c(-c2cc(=O)c3c(F)c(N4CC5(COC5)C4)c(F)cc3[nH]2)c1` , EC50 value reported: 1000 to 10000 nM

Kindly note: PPARG/RXRA LBD heterodimer (Homo sapiens, UniProt P37231), `Cc1cn(-c2c(F)cc3[nH]c(-c4cc(C#N)ccc4Cl)cc(=O)c3c2F)cn1` , EC50 value reported: 100 to 1000 nM

Kindly note: PPARG/RXRA LBD heterodimer (Homo sapiens, UniProt P37231), `CN(C)C(=O)CCc1c(F)cc2[nH]c(-c3cc(C#N)ccc3Cl)cc(=O)c2c1F` , EC50 value reported: 1000 to 10000 nM

Kindly note: PPARG/RXRA LBD heterodimer (Homo sapiens, UniProt P37231), `N#Cc1ccc(Cl)c(-c2cc(=O)c3c(F)c(C4=CCNCC4)c(F)cc3[nH]2)c1` , EC50 value reported: 1000 to 10000 nM

Kindly note: PPARG/RXRA LBD heterodimer (Homo sapiens, UniProt P37231), `N#Cc1ccc(Cl)c(-c2cc(=O)c3c(F)c(-c4ccc(C(F)(F)F)cc4)c(F)cc3[nH]2)c1` , EC50 value reported: 100 to 1000 nM

Kindly note: PPARG/RXRA LBD heterodimer (Homo sapiens, UniProt P37231), `Cc1ncc(-c2c(F)cc3[nH]c(-c4cc(C#N)ccc4Cl)cc(=O)c3c2F)cn1` , EC50 value reported: 100 to 1000 nM

Kindly note: PPARG/RXRA LBD heterodimer (Homo sapiens, UniProt P37231), `Cc1ccc(-c2c(F)cc3[nH]c(-c4cc(C#N)ccc4Cl)cc(=O)c3c2F)cn1` , EC50 value reported: 100 to 1000 nM

Measured values drawn from patent US20240166624A1 for this set.
